The origin of these recorded values is ChEMBL document CHEMBL4689842.

System: Fibroblast
Assay Explanation: Multiplex assay against human fibroblast
Format: toxicity, cell-based
Assay Setup: 24 h, 10 µM, compound concentration 10 uM, replicate 2
Decide using Population Fragmented Nuclei (%) alone. Strictly below 20%: Y. Equal to or above 20%: N.

{"Compound": "O=C(c1cc2c(cc1F)OC(c1ccc(F)cc1)(c1ccc(Cl)cc1Cl)O2)N1CCOCC1 (stereo not drawn)", "Label Value": "Y"}
{"Compound": "CNC(=O)Nc1ccc2c(c1)[C@@]1(CC2)OC(=O)N(CC(=O)N(Cc2ccc(F)cc2)[C@@H](C)C(F)(F)F)C1=O [A-486]", "Label Value": "N"}
{"Compound": "C=CC(=O)Nc1cccc(Oc2nc(Nc3ccc(N4CCN(C)CC4)cc3OC)ncc2Cl)c1", "Label Value": "N"}
{"Compound": "Cc1c[nH]c2nccc(Oc3c(F)cc(Nc4cc(Cl)nc(N)n4)cc3F)c12 [BAY-549]", "Label Value": "Y"}
{"Compound": "CC(C)CC(=O)Nc1[nH]nc2c1CN(C(=O)C1CCN(C)CC1)C2(C)C [PHA-793887]", "Label Value": "N"}
{"Compound": "CCc1nn(CCCN2CCN(c3cccc(Cl)c3)CC2)c(=O)n1CCOc1ccccc1.Cl [NEFAZODONE HYDROCHLORIDE]", "Label Value": "N"}
{"Compound": "Cc1ccc2c(c1)c1c(n2CCc2ccc(C)nc2)CCN(C)C1 [LATREPIRDINE]", "Label Value": "Y"}
{"Compound": "COc1cc2ncn(-c3cc(OCc4ccccc4C(F)(F)F)c(C(N)=O)s3)c2cc1OC [GW843682X]", "Label Value": "Y"}

* * *

Test system: Fibroblast
Assay Explanation: Incucyte cell viability with human fibroblast; also: filed as whole numbers so only -1 and 0 and 1 occur
Format: toxicity, cell-based
Assay Setup: 6 h, 10 µM, compound concentration 10 uM, replicate number 1, timepoint 6 hours

{"Compound": "S=C=Nc1cccc(NC(=S)NCCCCNC(=S)Nc2cccc(N=C=S)c2)c1", "Growth Rate": 0}
{"Compound": "CC(C)NC(=O)N1CC[C@H](NC2=Nc3cc(F)ccc3N(CC(F)F)c3ccc(Cl)cc32)C1", "Growth Rate": 0}
{"Compound": "Cc1csc(NC(=O)c2cc(F)cc(Oc3cncnc3)c2)n1", "Growth Rate": 0}
{"Compound": "C[C@H](N)COC(=O)[C@@H](CCCCN)NC(=O)Cc1c(-c2ccc3ccccc3c2)[nH]c2c1ccc1ccccc12", "Growth Rate": 0}
{"Compound": "COc1cc(-c2cn([C@H]3CCc4ccccc4N(CC(F)(F)F)C3=O)nn2)ccc1-n1ccc(C)n1", "Growth Rate": 0}
{"Compound": "Cc1nc(N2CC[C@H](O)C2)ncc1-c1cc(C(F)(F)F)cc2[nH]ncc12", "Growth Rate": 1}
{"Compound": "CN1C[C@H](Nc2cnn(C)c(=O)c2Br)C[C@H](c2ccccc2)C1", "Growth Rate": 0}
{"Compound": "CN(C)C(=O)/C(C#N)=C/c1ccc(-c2nc3cnc4c(ccn4C)c3n2C2CCCCC2)o1", "Growth Rate": 0}
{"Compound": "C=CC(=O)Nc1cccc(Oc2nc(Nc3ccc(N4CCN(C)CC4)cc3OC)ncc2Cl)c1", "Growth Rate": 0}
{"Compound": "CCOC(=O)c1cc2cc(-c3cc(C(=O)NCc4ccc(C(=O)O)cc4)nn3C)ccc2[nH]1", "Growth Rate": 0}
{"Compound": "O=C([O-])c1cc2ccccc2c(Cc2c(O)c(C(=O)[O-])cc3ccccc23)c1O.[Na+].[Na+]", "Growth Rate": 1}
{"Compound": "C=CC(=O)Nc1cccc(Sc2nc(Nc3ccc(N4CCN(C)CC4)cc3)ncc2Cl)c1", "Growth Rate": 0}
{"Compound": "CCCSc1nc(N[C@@H]2C[C@H]2c2ccc(F)c(F)c2)c2nnn([C@@H]3C[C@H](OCCO)[C@@H](O)[C@H]3O)c2n1", "Growth Rate": 0}
{"Compound": "CN(C)C(=O)Cn1cc(-c2nc([C@@](C)(c3ccc(-c4cnc(N)nc4)cc3)C3CC3)no2)cn1", "Growth Rate": 1}
{"Compound": "Cc1ccccc1C(=O)Nc1ccc(C(=O)N2CCCC(O)c3cc(Cl)ccc32)c(C)c1 (centres undefined)", "Growth Rate": 0}
{"Compound": "C#Cc1cccc(Nc2ncnc3cc(OCCOC)c(OCCOC)cc23)c1", "Growth Rate": 0}
{"Compound": "COCCOc1nc(-c2ccc(Cl)nc2)nc2c1CN(C(=O)c1ncn3ccccc13)CC2", "Growth Rate": 0}
{"Compound": "Cc1noc([C@H]2C[C@@H](c3ccc(C(F)(F)F)cc3)CN(C(=O)N3CCS(=O)(=O)C3)C2)n1", "Growth Rate": 1}
{"Compound": "COC(=O)C1=C(C)NC(C)=C(C(=O)OCCCN2CCC(c3ccccc3)(c3ccccc3)CC2)[C@H]1c1cccc([N+](=O)[O-])c1", "Growth Rate": 0}
{"Compound": "C[C@]1(C(=O)N(CCCC(=O)O)Cc2cccc(Cl)c2)CCN1C(=O)c1csc2ccccc12", "Growth Rate": 0}
{"Compound": "CCc1ccc(OCc2ccccc2C(=O)Nc2ccc3nc(C)cc(N)c3c2)cc1.Cl", "Growth Rate": 0}
{"Compound": "C[C@]1(O)C[C@@H](c2nc(-c3ccc4ccc(-c5ccccc5)nc4c3)c3c(N)nccn32)C1", "Growth Rate": 1}
{"Compound": "CCNC(=O)c1cc2c(N3CCOC[C@@H]3C)ccnc2n1C", "Growth Rate": 1}
{"Compound": "COc1ccc(-c2ccc3ncc4c(c3c2)n(-c2ccc(N3CCNCC3)c(C(F)(F)F)c2)c(=O)n4C)cn1.O=C(O)/C=C\\C(=O)O", "Growth Rate": 0}
{"Compound": "O=C(N[C@@H](C1CC1)C(F)(F)F)c1cc(-c2cnn3cc(-c4ccc(F)cc4)cnc23)cs1", "Growth Rate": 1}
{"Compound": "O=C(O)CC/C=C\\C[C@@H]1CO[C@H](c2ccccc2Cl)O[C@@H]1c1ccccc1O", "Growth Rate": 1}
{"Compound": "CC(C)(C)NC[C@H](O)COc1nsnc1N1CCOCC1", "Growth Rate": 1}
{"Compound": "CC(C)CC(=O)Nc1[nH]nc2c1CN(C(=O)C1CCN(C)CC1)C2(C)C", "Growth Rate": 0}
{"Compound": "COc1cc(Nc2nccc(-c3cnn4nc(OC)ccc34)n2)cc(C(F)(F)F)c1", "Growth Rate": 0}
{"Compound": "O=C(O)C1CN(Cc2ccc(-c3nc4cc(Cc5ccccc5F)ccc4s3)c(F)c2)C1", "Growth Rate": 1}
{"Compound": "CC1CCN(CC[C@H]2CCCN2S(=O)(=O)c2cccc(O)c2)CC1.Cl", "Growth Rate": 1}
{"Compound": "COC(=O)/C=C/c1cccc(N(Cc2ccc(-c3ccc(N(C)C)cc3)cc2)C(=O)C2CCCCC2)c1", "Growth Rate": 0}
{"Compound": "Cc1cc([C@@H](C)Nc2ccccc2C(=O)O)c2nc(N3CCOCC3)cc(=O)n2c1", "Growth Rate": 0}
{"Compound": "C[C@H](NC[C@H](O)CP(=O)(O)CC1CCCCC1)c1ccc(Cl)c(Cl)c1.Cl", "Growth Rate": 0}

* * *

Tested on: HEK-293T
Assay Explanation: Multiplex assay against HEK293T
Format: toxicity, cell-based
Assay Setup: human, 12 h, 1 µM, compound concentration 1 uM, replicate 2
# Lookup of reported Population Normal (%) keyed by entry

{"Compound": "Cc1ccccc1C(c1ccccc1C)N1C2CCC1CC(O)(c1ccccc1)C2 (stereo not given)", "Population Normal (%)": 94}
{"Compound": "O=c1[nH]c2ccccc2n1C1CCN(Cc2ccc(-c3[nH]c4cc5ncnc5cc4nc3-c3ccccc3)cc2)CC1", "Population Normal (%)": 97}
{"Compound": "C=CC(=O)Nc1cccc(Oc2nc(Nc3ccc(N4CCN(C)CC4)cc3OC)ncc2Cl)c1", "Population Normal (%)": 92}
{"Compound": "CNC(=O)Nc1ccc(-c2nc(N3CC4CCC(C3)O4)c3cnn(C4CCC5(CC4)OCCO5)c3n2)cc1", "Population Normal (%)": 89}
{"Compound": "COc1cc(Nc2nccc(-c3cnn4nc(OC)ccc34)n2)cc(C(F)(F)F)c1", "Population Normal (%)": 98}
{"Compound": "CC(C)OC(=O)N1CCC(Oc2ncnc3c2cnn3-c2ccc(S(C)(=O)=O)cc2F)CC1", "Population Normal (%)": 95}
{"Compound": "C=CC(=O)Nc1cccc(Sc2nc(Nc3ccc(N4CCN(C)CC4)cc3)ncc2Cl)c1", "Population Normal (%)": 89}
{"Compound": "Cc1cc(C)c(-n2ccn3nc(-c4cccnc4)cc23)cc1NC(=O)c1cc(C#N)cc(S(F)(F)(F)(F)F)c1", "Population Normal (%)": 96}
{"Compound": "CC(C)CC(=O)Nc1[nH]nc2c1CN(C(=O)C1CCN(C)CC1)C2(C)C", "Population Normal (%)": 97}
{"Compound": "Cc1cccc(CN2CCN(C(c3ccccc3)c3ccc(Cl)cc3)CC2)c1.Cl.Cl (stereo not given)", "Population Normal (%)": 96}
